- Test system: PC-9
- method: Anti-proliferative activity against human PC-9 cells assessed as reduction in cell proliferation incubated for 72 hrs by MTT assay
- Format: functional, cell-based
- assay_setup: PC-9, 72 h
measured_parameter: IC50 (µM)
Return type: number; implicit unit µM.

Below, each entry is followed by its recorded IC50 result.
{"columns": ["compound", "IC50 (µM)"],
 "data": [
  ["C=CC(=O)Nc1cccc(Nc2nc(Nc3ccc(N4CCN(CC(=O)NCCCCCNC(=O)CNc5cccc6c5C(=O)N(C5CCC(=O)NC5=O)C6=O)CC4)cc3OC)ncc2C(F)(F)F)c1 (configuration not stated)", 14.4],
  ["C=CC(=O)Nc1cccc(Nc2nc(Nc3ccc(N4CCN(C(=O)CCCC(=O)Nc5cccc6c5C(=O)N(C5CCC(=O)NC5=O)C6=O)CC4)cc3OC)ncc2C(F)(F)F)c1 (configuration not stated)", 1.35],
  ["C=CC(=O)Nc1cccc(Nc2nc(Nc3ccc(N4CCN(C(=O)CCCCCCC(=O)Nc5cccc6c5C(=O)N(C5CCC(=O)NC5=O)C6=O)CC4)cc3OC)ncc2C(F)(F)F)c1 (configuration not stated)", 2.55],
  ["C=CC(=O)Nc1cccc(Nc2nc(Nc3ccc(N4CCN(CC(=O)NCCCCNC(=O)CNc5cccc6c5C(=O)N(C5CCC(=O)NC5=O)C6=O)CC4)cc3OC)ncc2C(F)(F)F)c1 (configuration not stated)", 13.2],
  ["C=CC(=O)Nc1cccc(Nc2nc(Nc3ccc(N4CCN(C(=O)CCCCC(=O)Nc5cccc6c5C(=O)N(C5CCC(=O)NC5=O)C6=O)CC4)cc3OC)ncc2C(F)(F)F)c1 (configuration not stated)", 4.62],
  ["C=CC(=O)Nc1cccc(Nc2nc(Nc3ccc(N4CCN(CC(=O)NCCNc5ccc6c(c5)C(=O)N(C5CCC(=O)NC5=O)C6=O)CC4)cc3OC)ncc2C(F)(F)F)c1 (configuration not stated)", 3.51],
  ["C=CC(=O)Nc1cccc(Nc2nc(Nc3ccc(N4CCN(CCOCCNc5cccc6c5C(=O)N(C5CCC(=O)NC5=O)C6=O)CC4)cc3OC)ncc2C(F)(F)F)c1 (configuration not stated)", 0.5],
  ["C=CC(=O)Nc1cccc(Nc2nc(Nc3ccc(N4CCN(CC(=O)NCCCNC(=O)CNc5cccc6c5C(=O)N(C5CCC(=O)NC5=O)C6=O)CC4)cc3OC)ncc2C(F)(F)F)c1 (configuration not stated)", 7.67]
]}

If you can, please state the reported IC50 value of C=CC(=O)Nc1cccc(Nc2nc(Nc3ccc(N4CCN(C(=O)CCCCCCCCCCCCC(=O)Nc5cccc6c5C(=O)N(C5CCC(=O)NC5=O)C6=O)CC4)cc3OC)ncc2C(F)(F)F)c1 (configuration not stated) . 46.5

This collection of values is drawn from ChEMBL document CHEMBL5113409.
